Measured inhibition, listed per entry.
molecular target: Aurora kinase C (Homo sapiens) (UniProt Q9UQB9); conditions: at 0.1 µM
Sequence (Q9UQB9 whole entry): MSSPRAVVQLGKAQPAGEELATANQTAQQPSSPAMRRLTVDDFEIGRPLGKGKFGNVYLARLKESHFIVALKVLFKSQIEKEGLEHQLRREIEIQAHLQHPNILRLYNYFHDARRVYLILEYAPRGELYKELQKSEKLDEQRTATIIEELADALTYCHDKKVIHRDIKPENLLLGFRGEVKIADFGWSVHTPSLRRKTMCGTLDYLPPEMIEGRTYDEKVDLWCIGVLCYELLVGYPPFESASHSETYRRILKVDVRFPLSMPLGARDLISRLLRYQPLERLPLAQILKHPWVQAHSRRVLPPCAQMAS
Provide only the numeric value, understood in %.

COc1c(C(N)=O)cc(-c2ccc(Cl)cc2)cc1-c1ccc(S(N)(=O)=O)cc1 -0.05

Data request: Which value of inhibition has been reported for CNC(=O)c1ncccc1Nc1nc(Nc2cc3c(cc2OC)CCCN3C(=O)CN(C)C)nc2[nH]ccc12 in the records?
Data returned: 2.36

Data request: Also c1cnn2ncc(-c3ccnc(NCCCN4CCOCC4)n3)c2c1 , if possible.
Data returned: -0.51

Data request: Also COC(=O)Nc1nc2cc(Oc3ccc(NC(=O)Nc4ccccc4)cc3)ccc2[nH]1 , if possible.
Data returned: 28.9

Data request: Also CCN1CCC(C(=O)Nc2n[nH]c3nnc(-c4cccc(F)c4F)cc23)CC1 , if possible.
Data returned: 0.94

Data request: Also c1ccc(-c2n[nH]cc2-c2ccnc(-c3ccc(OCCn4ccnc4)cc3)c2)nc1 , if possible.
Data returned: 1.04

Data request: Also CC(C)c1ccc(-c2cc(-c3c[nH]nc3-c3ccccn3)ccn2)cc1 , if possible.
Data returned: 1.22

Data request: Also O=C(Nc1n[nH]c2nnc(-c3cccnc3)cc12)C1CC1 , if possible.
Data returned: -1.84

Data request: Also CCOc1ccc2c(-c3ccnc(Nc4cc(OC)cc(C(F)(F)F)c4)n3)cnn2n1 , if possible.
Data returned: 1.08

Data request: Also CCn1c(-c2nonc2N)nc2cncc(C(=O)NCCNC)c21 , if possible.
Data returned: 0.6
